cytotoxicity at 70.5 h listing for selected compounds.
Experiment: Human HepG2 cell viability assay in 384 well format
Format: toxicity, cell-based
Design: dose 125 nL, time 70.5 hour; concentration not given beside the values
Settings: HepG2 cells, read-out: Inhibition
Please reply with the bare figure in % and do not write the unit itself.

Before answering, review these 5 worked examples.
Cc1nc2cc(=O)[nH]n2c(C)c1CC(=O)Nc1cnn(C(C)(C)C)c1; -3.02
CC1CN(S(=O)(=O)c2cc(S(C)(=O)=O)ccc2Br)c2cccnc2O1 (stereo unspecified); 1.23
CCNC(=O)CN(Cc1ccoc1)C1CCCCC1; -9.92
COCC1c2nnn(CC3CC3)c2CCN1C(=O)N1CCCC1 (stereo unspecified); 14.1
Cc1nc(-c2ccccc2)n(CC(=O)NC2CCCC2)n1; -13.6

# input Entry CC(NCc1ccncc1)c1cc(F)ccc1N1CCN(C)CC1 (stereo unspecified) : reported cytotoxicity at 70.5 h = ?
# output -4.5

# input Entry CN(C)c1cc(C2CCCN2Cc2ccccc2OCC(=O)O)ccn1 (stereo unspecified) : reported cytotoxicity at 70.5 h = ?
# output -6.83

# input Entry `CNC(=O)CNC(=O)Nc1ccc(F)c(Br)c1` : reported cytotoxicity at 70.5 h = ?
# output -2.46

# input Entry `CCO[C@@H]1CCN(C(=O)c2cscn2)[C@@H]1Cc1cnn(C)c1` : reported cytotoxicity at 70.5 h = ?
# output -10.2

# input Entry `CNC(=O)CC1CCN(C(=O)NCc2coc3ccccc23)CC1` : reported cytotoxicity at 70.5 h = ?
# output 7.31

# input Entry `O=C(Nc1nc2c(s1)CN(S(=O)(=O)C1CC1)CC2)c1ccc(Cl)s1` : reported cytotoxicity at 70.5 h = ?
# output -11.1

* * *

Assay: Human HepG2 cell viability assay in 384 well format
Format: toxicity, cell-based
Design: dose 125 nL, time 70.5 hour; concentration not given beside the values
Details: HepG2 cells, read-out: Inhibition
METRIC: cytotoxicity at 70.5 h (%)
Please reply with the bare figure in % and do not write the unit itself.

Cc1ccc(-c2cc(C(=O)NCCN3CCCS3(=O)=O)[nH]n2)cc1; 11.7
CC(=O)N1N=C(c2ccccc2)OC1C(=O)N(C)Cc1ccccc1 (configuration not stated); -4.44
CCNC(=O)C1CCN(Cn2nc(-c3ccc(F)cc3)oc2=O)CC1; -13.2
COCCC(=O)NCC(O)c1c(F)cccc1F (configuration not stated); -7.9
O=C(NCCNc1ncccn1)C1CCN(CC(F)(F)F)CC1; -3.78
CCSCC(C)NCc1nc(-c2cccnc2)no1 (configuration not stated); 19.3
CCSc1ccccc1C(=O)N1CCC(S(=O)(=O)c2nncn2C)CC1; -5.86
CCc1n[nH]c(C2CN(Cc3csc(COC)n3)CCO2)n1 (configuration not stated); -7.86
Cc1cc(CS(=O)(=O)C(C)c2ccc(F)cc2)on1 (configuration not stated); -5.55
CCN(CC)C(=O)c1cc(-c2cccc(Cl)c2)no1; -5.28

# input Entry `N#CCCN(Cc1cccnc1)C(=O)c1ccn(-c2ccccc2)n1` : reported cytotoxicity at 70.5 h = ?
# output 1.01

# input Entry CN1CC(NC(=O)CCCc2cc(Cl)sc2Cl)CCC1=O (configuration not stated) : reported cytotoxicity at 70.5 h = ?
# output -6.53

* * *

Experiment: Human HepG2 cell viability assay in 384 well format
Format: toxicity, cell-based
Design: dose 125 nL, time 70.5 hour; concentration not given beside the values
Conditions: HepG2 cells, read-out: Inhibition
cytotoxicity at 70.5 h listing for selected compounds.
Please reply with the bare figure in % and do not write the unit itself.

Before answering, review these 6 worked examples.
Cc1ccc(CN(C)Cc2nc3c(cnn3C)c(=O)[nH]2)o1; -2.01
Cc1cccc(NC(=O)N2CCC3(CC(=O)N(c4ccsc4)C3)C2)c1 (configuration not stated); -5.62
CCOCCCC(=O)Nc1cc(C(N)=O)ccc1N1CCCCC1; -9.3
Cc1ccnc(CC(C)N(C)Cc2ccc3c(c2)OCCO3)c1 (configuration not stated); -0.147
O=S(=O)(NCC1(O)CCOc2ccccc21)c1ccccc1F (configuration not stated); -4.25
c1ccc(CN2Cc3[nH]nc(COCC4CC4)c3C2)nc1; -4.63

// next entry
# input Entry Cc1cccc(CN2C(=O)OCC2CO)c1F (configuration not stated) : reported cytotoxicity at 70.5 h = ?
# output 14.6

* * *

Experiment: Human HepG2 cell viability assay in 384 well format
Assay type: toxicity, cell-based
Set-up: dose 125 nL, time 70.5 hour; concentration not given beside the values
Conditions: HepG2 cells, read-out: Inhibition
cytotoxicity at 70.5 h listing for selected molecules.
Please reply with the bare figure in % and do not write the unit itself.

Before answering, review these 2 worked examples.
Cc1ccc(CN(CCCN(C)C)Cc2cnc(N(C)C)nc2)o1; 6.47
O=C1CCCC2=C1C(c1cccc(F)c1F)Nc1nonc1N2 (configuration not stated); 1.2

# input Entry CCOC(=O)C1CN(S(=O)(=O)CC)Cc2ncn(CC)c21 (configuration not stated) : reported cytotoxicity at 70.5 h = ?
# output 0.473

# input Entry O=C(Nc1ccccn1)C1CC(=O)N(Cc2ccccn2)C1 (configuration not stated) : reported cytotoxicity at 70.5 h = ?
# output 16.8

# input Entry OC(CNc1ccncn1)CN1CCCCCC1 (configuration not stated) : reported cytotoxicity at 70.5 h = ?
# output -7.06

# input Entry CCc1cc(N2CCN3CCCCC3C2)n2nccc2n1 (configuration not stated) : reported cytotoxicity at 70.5 h = ?
# output -8.87

# input Entry `COCC(=O)N1CCCN(Cc2cc(C(C)C)no2)CC1` : reported cytotoxicity at 70.5 h = ?
# output 12.3

# input Entry `CO[C@@H]1CC[C@@H](N(C)C(=O)c2cn3cc(C)ccc3n2)[C@H]1O` : reported cytotoxicity at 70.5 h = ?
# output -9

# input Entry `CCc1ncnc2c1CCN(C(=O)N1CCCC1)CC2` : reported cytotoxicity at 70.5 h = ?
# output 20.9

* * *

Assay: Human HepG2 cell viability assay in 384 well format
Format: toxicity, cell-based
Design: dose 125 nL, time 70.5 hour; concentration not given beside the values
Conditions: HepG2 cells, read-out: Inhibition
cytotoxicity at 70.5 h listing for selected compounds.
Please reply with the bare figure in % and do not write the unit itself.

O=C(c1cccc2ccnn12)N1CCCC1Cn1cccn1 (centres undefined); -2.56
Cn1c(CN2CCCCC2)nnc1C1CCN(c2nccc(N)n2)CC1; -7.78
CC(C)[C@H](NC(=O)NC1CCS(=O)(=O)C1)C(=O)NCc1cccnc1 (some centres undefined); 6.1
CC1(C(=O)NCCc2ccc(F)cc2)CCOCC1; -7.61

# input Entry CN(C)Cc1nc(C(=O)N2CCCC(COc3ccc(F)cc3)C2)cs1 (centres undefined) : reported cytotoxicity at 70.5 h = ?
# output -7.27

# input Entry CCN(Cc1cscn1)CC1(C)Cc2c(N)nc(N)nc2O1 (centres undefined) : reported cytotoxicity at 70.5 h = ?
# output 6.12

# input Entry `CC(C)n1c(=O)c2ccccc2n(CCCN(C)C)c1=O` : reported cytotoxicity at 70.5 h = ?
# output -12.5

# input Entry `CNC(=O)NC(=O)Cn1cc(-c2ccccc2)cn1` : reported cytotoxicity at 70.5 h = ?
# output -2.21

# input Entry `CCn1nccc1CN(C)C(=O)Cn1nc(C)c(C)c1C` : reported cytotoxicity at 70.5 h = ?
# output -4.43

# input Entry `CC(C)(CO)NCc1ccc(OCc2ccc3c(c2)OCCO3)cc1` : reported cytotoxicity at 70.5 h = ?
# output -2.91

# input Entry `Cc1csc(CCCNc2ccc(S(N)(=O)=O)cc2C#N)n1` : reported cytotoxicity at 70.5 h = ?
# output -22.6

# input Entry Cc1ccccc1Cc1cnc(NC(=O)C2CNC(=O)N2)s1 (centres undefined) : reported cytotoxicity at 70.5 h = ?
# output 2.49

# input Entry `CC(C)n1nnnc1-c1ccc(NC(=O)N(C)CCN(C)C)cc1F` : reported cytotoxicity at 70.5 h = ?
# output -7.88

* * *

Assay: Human HepG2 cell viability assay in 384 well format
Assay type: toxicity, cell-based
Set-up: dose 125 nL, time 70.5 hour; concentration not given beside the values
Settings: HepG2 cells, read-out: Inhibition
cytotoxicity at 70.5 h listing for selected compounds.
Please reply with the bare figure in % and do not write the unit itself.

CO[C@H]1CCN(Cc2cccc(C)n2)[C@@H]2CN(Cc3cccnc3)C[C@H]12; 1.87
Cc1nn(C)c(C)c1C1CCCN1Cc1nc(C2CC2)no1 (stereo unspecified); 36.6
CN1Cc2cc(F)ccc2N(CC(O)C(F)(F)F)CCC1=O (stereo unspecified); 11.8
c1ccc(-c2cnc(CN3CCCC3Cn3cccn3)o2)cc1 (stereo unspecified); 1.69
CCc1nc(CNC(C)c2cccc(N3CCCC3=O)c2)cs1 (stereo unspecified); -12.3
c1ccc(CN2C[C@@H]3COC[C@]3(COCc3ccncc3)C2)nc1; -2.45
CCc1noc(C)c1C(=O)N1CCC2(CCCN(CC(C)(C)C)C2=O)C1 (stereo unspecified); -5.92
O=S1(=O)c2cnccc2OC(COc2ccccc2)CN1CC1CC1 (stereo unspecified); -1.49

# input Entry CS(=O)(=O)N1CCC(Oc2ccc(C(=O)NC3CCOC3)cc2Cl)CC1 (stereo unspecified) : reported cytotoxicity at 70.5 h = ?
# output -7.64

# input Entry `CN(C)CC(=O)N1CCN(C(=O)c2cccc3[nH]ncc23)CC1` : reported cytotoxicity at 70.5 h = ?
# output -8.09

# input Entry `CS(=O)(=O)c1snnc1C1CCN(Cc2cccnc2)CC1` : reported cytotoxicity at 70.5 h = ?
# output 8.4

Recorded values, source ChEMBL document CHEMBL3507680.
